# Measurement Description: in vitro
# Applied Conditions: rat, plasma
# Description: Fraction unbound in rat plasma by ultracentrifugation method
Assay Endpoint: fraction unbound

// below: answered compounds
INSERT INTO measurements (compound, observed_result) VALUES
  ('O=C1Nc2ccc(Cl)cc2C(c2ccccc2Cl)=NC1O (centres undefined) [LORAZEPAM]', 0.09),
  ('Cc1ccc(C)c(OCCCC(C)(C)C(=O)O)c1 [GEMFIBROZIL]', 0.01),
  ('CCCc1nc2c(C)cc(-c3nc4ccccc4n3C)cc2n1Cc1ccc(-c2ccccc2C(=O)O)cc1', 0.007);

// switching to the query compound
For the compound shown here, C[C@H]1COc2c(N3CCN(C)CC3)c(F)cc3c(=O)c(C(=O)O)cn1c23.Cl [LEVOFLOXACIN HYDROCHLORIDE] , give the reported fraction unbound. 0.826
